B1: library; a variant is named by its letters at N, in order (parent)
chain: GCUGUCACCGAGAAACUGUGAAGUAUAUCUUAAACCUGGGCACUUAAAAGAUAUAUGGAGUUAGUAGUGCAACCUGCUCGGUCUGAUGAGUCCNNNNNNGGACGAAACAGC

Variants of: B1
test_name: normalized RNA/DNA level with ligand (relative to sTRSVctl = 100) (log10 (% of sTRSVctl)); HEK293T; ligand: cyclic di-GMP (c-di-GMP-II aptamer); ligand concentration (+) RNA-Seq: 1 mM; higher = less ribozyme self-cleavage, higher mRNA level
test_settings: reporter: mCherry (pCS4076), ligand present: yes
experimental_readout: normalized RNA/DNA level with ligand (log10)
Please reply with the number alone, leaving off any unit.

mutation_label=ACAACG obs_value=1.65
mutation_label=CACAGC obs_value=1.84
mutation_label=AUGGUA obs_value=1.65
mutation_label=UCUCAU obs_value=1.78
mutation_label=UGGCGC obs_value=1.9

Q: May I ask what normalized RNA/DNA level with ligand (log10) has been recorded for CCUCAG ?
Ans: 1.81

Q: May I ask what normalized RNA/DNA level with ligand (log10) has been recorded for AAUAAG ?
Ans: 1.7

Q: May I ask what normalized RNA/DNA level with ligand (log10) has been recorded for CUAGAG ?
Ans: 1.74

Q: May I ask what normalized RNA/DNA level with ligand (log10) has been recorded for UUCGUA ?
Ans: 1.82

Q: May I ask what normalized RNA/DNA level with ligand (log10) has been recorded for CUAUUG ?
Ans: 1.81

Q: May I ask what normalized RNA/DNA level with ligand (log10) has been recorded for AGUCCA ?
Ans: 1.78

Q: May I ask what normalized RNA/DNA level with ligand (log10) has been recorded for AGUUCA ?
Ans: 1.8

Q: May I ask what normalized RNA/DNA level with ligand (log10) has been recorded for UUCCGA ?
Ans: 1.92

Q: May I ask what normalized RNA/DNA level with ligand (log10) has been recorded for CACCCA ?
Ans: 1.75

Q: May I ask what normalized RNA/DNA level with ligand (log10) has been recorded for GGAGUC ?
Ans: 1.79

Q: May I ask what normalized RNA/DNA level with ligand (log10) has been recorded for CCUACU ?
Ans: 1.76
